assay target: Dickkopf-related protein 1 (Homo sapiens)
measurement notes: DKK1 binders on small-molecule microarrays, primary screen, biochemical, small-molecule microarray, 635 nm fluorescence scan (AID 1106);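 also: score merges emission near 667 nm with signal to noise over three replicate slides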
test settings: DKK1 binding, higher = more signal
quantity name: composite z-score
Enter a number only.

Example entries and their recorded answers appear below.
# compound, quantity name, result number
measured = [
    ("COCCCN1C(=O)[C@@]2(Cc3ccccc31)c1ccccc1C(=O)N(Cc1ccccc1OC)[C@H]2c1ccc(CO)cc1", "composite z-score", 0.514),
    ("C=CCN1C(=O)[C@]2(O[C@H](CCO)[C@@H]([Si](C)(C)c3ccc(OC)cc3)[C@@H]2C)c2ccccc21", "composite z-score", -1.27),
    ("Cc1ccc(F)cc1S(=O)(=O)N[C@@H]1CCN(Cc2ccc3[nH]ccc3c2)C1", "composite z-score", 0.574),
]

Alright, here's another compound for you.
Checklist item: composite z-score tested on Dickkopf-related protein 1 (Homo sapiens), entry CC(C)C[C@@H]1NC(=O)[C@@]23C(=O)N[C@@H](Cc4ccccc4)C2[C@H](C)[C@@]2(C)O[C@H]2C3/C=C/C/C=C\CNC(=O)[C@@H](CC(C)C)NC1=O (some centres undefined) , value?
0.511
